Value source: ChEMBL document CHEMBL1148771

Recorded Ki values for a group of compounds are listed next.
experiment: Inhibition of HIV1 Protease M3 variant by FRET based assay; design: species or system Human immunodeficiency virus 1
recorded.endpoint: Ki

CC(=O)N[C@H](C(=O)N[C@@H](Cc1ccccc1)C[C@H](O)[C@H](Cc1ccccc1)NC(=O)[C@@H]1CN(c2ccc(F)c(F)c2)C(=O)O1)C(C)C | 282 nM
CC(=O)N[C@H](C(=O)N[C@@H](Cc1ccccc1)C[C@H](O)[C@H](Cc1ccccc1)NC(=O)[C@@H]1CN(c2ccccc2)C(=O)O1)C(C)C | 112 nM
Cc1cccc(C)c1OCC(=O)N[C@@H](Cc1ccccc1)[C@@H](O)C[C@H](Cc1ccccc1)NC(=O)[C@@H]1CN(c2ccccc2)C(=O)O1 | 447 nM
CC(=O)N[C@H](C(=O)N[C@@H](Cc1ccccc1)C[C@H](O)[C@H](Cc1ccccc1)NC(=O)[C@@H]1CN(c2cccc(C(C)=O)c2)C(=O)O1)C(C)C | 122 nM
Cc1cccc(C)c1OCC(=O)N[C@@H](Cc1ccccc1)[C@@H](O)C[C@H](Cc1ccccc1)NC(=O)[C@H](C(C)C)N1CCCNC1=O | 0.9 nM
